From: ChEMBL document CHEMBL5608161

System: Murine hepatitis virus
Test: microbe, parasite or virus in culture
Details: Murine coronavirus, DB
Description: Antiviral activity against MHV expressing nLuc infected in human DB cells assessed as inhibition of viral replication
readout.name: pIC50
Note on units: pIC50 is unitless, being -log10 of a concentration expressed in mol/L.

Tell me the measured pIC50 of "CC(C)C(=O)OC[C@H]1O[C@@H](n2cc/c(=N\O)[nH]c2=O)[C@H](O)[C@@H]1O" , please.
5.85
